- target_desc: human CCR6 (Homo sapiens)
- Sequence (P51684 1-374): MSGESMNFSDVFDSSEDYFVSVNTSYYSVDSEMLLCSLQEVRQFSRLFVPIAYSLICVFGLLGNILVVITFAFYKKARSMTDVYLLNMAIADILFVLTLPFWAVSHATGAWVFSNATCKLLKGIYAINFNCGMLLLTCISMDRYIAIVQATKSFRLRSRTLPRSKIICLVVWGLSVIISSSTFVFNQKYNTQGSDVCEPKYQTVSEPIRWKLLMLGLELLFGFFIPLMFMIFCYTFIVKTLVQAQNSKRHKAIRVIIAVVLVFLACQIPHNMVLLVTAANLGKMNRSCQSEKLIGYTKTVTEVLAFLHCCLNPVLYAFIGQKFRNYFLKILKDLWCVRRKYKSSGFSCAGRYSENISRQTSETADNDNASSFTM
- measurement_description: Human CCR6-CRE reporter assay
- Assay type: cell-based
- Design: The second construct contained the open reading frame of human CCR6 in the pUNO1 backbone; host or cells: 293FT cells
- assay_conditions: relative -Log IC50; 293FT cells transfected with human CCR6 and CRE-luciferase reporter; 6 μM Forskolin, 6 nM CCL20; 5 h
recorded_endpoint: IC50

sample_smiles | reported_value
CNC(=O)c1ccc(-c2ccc(S(=O)(=O)[C@H]3CC[C@H](Nc4ccc(S(F)(F)(F)(F)F)cc4)CC3)cc2)cc1 | 63.1 nM

I'm hoping you can list IC50 for every molecule here, please.
1. O=S(=O)(c1ccc(-c2ccc3nnc(C4CCCC4)n3c2)cc1)N1CCC(Nc2ccc(S(F)(F)(F)(F)F)cc2)CC1
2. CN(C)C(=O)c1ccc(-c2ccc(S(=O)(=O)[C@H]3CC[C@H](Nc4ccc(S(F)(F)(F)(F)F)cc4)CC3)cc2)cn1
3. NC(=O)c1n[nH]c2ccc(-c3ccc(S(=O)(=O)[C@H]4CC[C@H](Nc5ccc(S(F)(F)(F)(F)F)cc5)CC4)cc3)cc12

a:
1: 63.1 nM; 2: 100 nM; 3: 63.1 nM

---

- target_desc: human CCR6 (Homo sapiens, UniProt P51684)
- measurement_description: CHO-K1 CCR6 chemotaxis assay towards CCL20
- Type: cell-based
- assay_conditions: relative -Log IC50; CHO-K1 cells overexpressing human CCR6; migration towards 100 ng/ml CCL20; 4 h
recorded_endpoint: IC50 (nM)
Answers are plain numbers, in nM.

sample_smiles | target_desc | recorded_endpoint | scale_unit | reported_value
Cc1nnc2ccc(-c3ccc(S(=O)(=O)N4CCC(Nc5ccc(S(F)(F)(F)(F)F)cc5)CC4)cc3)cn12 | human CCR6 (Homo sapiens, UniProt P51684) | IC50 | nM | 63.1

I'm hoping you can list IC50 for every compound here, please.
1. CNC(=O)c1ccc(-c2ccc(S(=O)(=O)[C@H]3CC[C@H](Nc4ccc(S(F)(F)(F)(F)F)cc4)CC3)cc2)cn1
2. CC(C)c1nnc2ccc(-c3ccc(S(=O)(=O)N4CCC(Nc5cccc(S(F)(F)(F)(F)F)c5)CC4)cc3)cn12
3. O=S(=O)(c1ccc(-c2cn3ccnc3cn2)cc1)[C@H]1CC[C@H](Nc2ccc(S(F)(F)(F)(F)F)cc2)CC1

a:
1. 100
2. 126
3. 158

---

Provide the recorded pIC50 for the entries that follow.
- target_desc: UniProt P51684
- Sequence (P51684 1-374): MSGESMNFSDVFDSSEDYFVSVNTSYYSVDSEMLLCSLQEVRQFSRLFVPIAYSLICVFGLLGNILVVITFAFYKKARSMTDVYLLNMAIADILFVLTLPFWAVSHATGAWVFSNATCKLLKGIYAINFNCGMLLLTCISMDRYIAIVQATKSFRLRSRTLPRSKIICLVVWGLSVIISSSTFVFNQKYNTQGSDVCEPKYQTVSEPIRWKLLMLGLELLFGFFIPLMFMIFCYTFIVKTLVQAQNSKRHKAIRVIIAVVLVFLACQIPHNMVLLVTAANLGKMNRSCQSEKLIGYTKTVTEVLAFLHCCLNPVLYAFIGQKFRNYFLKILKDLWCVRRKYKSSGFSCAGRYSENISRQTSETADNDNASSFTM
- measurement_description: Human CCR6-CRE reporter assay
- Assay type: cell-based
- Parameters: The second construct contained the open reading frame of human CCR6 in the pUNO1 backbone; host or cells: 293FT cells
- assay_conditions: relative -Log IC50; 293FT cells transfected with human CCR6 and CRE-luciferase reporter; 6 μM Forskolin, 6 nM CCL20; 5 h
Give bare numbers, as −log10 of the molar value.

Before answering, review these 8 worked examples.
compound | target_desc | pIC50
CC(C)c1nnc2cnc(-c3ccc(S(=N)(=O)[C@H]4CC[C@H](Nc5ccc(S(F)(F)(F)(F)F)cc5)CC4)cc3)cn12 (some centres unmarked) | UniProt P51684 | 7.00
NC(=O)c1ccc(-c2ccc(S(=O)(=O)[C@H]3CC[C@H](Nc4ccc(S(F)(F)(F)(F)F)cc4)CC3)cc2)nn1 | UniProt P51684 | 6.40
CC(C)NC(=O)c1cccc(-c2ccc(S(=O)(=O)[C@H]3CC[C@H](Nc4ccc(S(F)(F)(F)(F)F)cc4)CC3)cc2)c1 | UniProt P51684 | 7.10
O=C(NC1CC1)c1cccc(-c2ccc(S(=O)(=O)[C@H]3CC[C@H](Nc4ccc(S(F)(F)(F)(F)F)cc4)CC3)cc2)c1 | UniProt P51684 | 7.30
Cc1[nH]nc2ccc(-c3ccc(S(=O)(=O)[C@H]4CC[C@H](Nc5ccc(S(F)(F)(F)(F)F)cc5)CC4)cc3)cc12 | UniProt P51684 | 7.40
CN(C)C(=O)c1cc(-c2ccc(S(=N)(=O)[C@H]3CC[C@H](Nc4ccc(S(F)(F)(F)(F)F)cc4)CC3)cc2)ccn1 (some centres unmarked) | UniProt P51684 | 5.70
N=S(=O)(c1ccc(-c2ccnc(C(N)=O)c2)cc1)[C@H]1CC[C@H](Nc2ccc(S(F)(F)(F)(F)F)cc2)CC1 (some centres unmarked) | UniProt P51684 | 6.90
N=S(=O)(c1ccc(-c2ccc3nccn3c2)cc1)[C@H]1CC[C@@H](Nc2ccc(S(F)(F)(F)(F)F)cc2)CC1 (some centres unmarked) | UniProt P51684 | 6.10

I'm hoping you can list pIC50 for every compound here, please.
1. Nc1cc(-c2ccc(S(=O)(=O)[C@H]3CC[C@H](Nc4ccc(S(F)(F)(F)(F)F)cc4)CC3)cc2)cn2ccnc12
2. NC(=O)c1cc(-c2ccc(S(=O)(=O)[C@H]3CC[C@H](Nc4ccc(S(F)(F)(F)(F)F)cc4)CC3)cc2)co1
3. NC(=O)c1nnc2ccc(-c3ccc(S(=O)(=O)N4CCC(Nc5ccc(S(F)(F)(F)(F)F)cc5)CC4)cc3)cn12
4. Cc1cnc2ccc(-c3ccc(S(=O)(=O)[C@H]4CC[C@H](Nc5ccc(S(F)(F)(F)(F)F)cc5)CC4)cc3)cn12
5. N#Cc1c[nH]c2ccc(-c3ccc(S(=O)(=O)[C@H]4CC[C@@H](Nc5ccc(S(F)(F)(F)(F)F)cc5)CC4)cc3)cc12
6. N=S(=O)(c1ccc(-c2ccnc(C(N)=O)c2)cc1)[C@H]1CC[C@H](Nc2ccc(S(F)(F)(F)(F)F)cc2)CC1 (single isomer, unassigned; (-)) [Example 131]

a:
[7.20, 7.00, 7.30, 7.10, 5.90, 6.50]
